Tested on: CCRF-CEM leukemia
MEASUREMENT_NOTES: NCI-60 one-dose screen, 48 h
MEASUREMENT_SETUP: 10 µM unless noted
This is part of a sample that, as a whole, favours compounds with a hit. Of some 83,000 tested, about 20% had one in any assay. Activity calls are given as the source filed them. The calls were made as follows: active = growth percent below 10; inactive = the rest.
Outcomes you can answer with include only these: active, inactive

As a guide, the following entries are already answered.
COMPOUND: CS(=O)(=O)Nc1cc(-c2ccc3ncc(C#N)c(NCc4ccccc4F)c3c2)cnc1Cl
LABEL_VALUE: inactive
--
COMPOUND: O=C(CCC(=O)N1CCOCC1)OCCCCCCSc1ccc([N+](=O)[O-])c2nonc12
LABEL_VALUE: active
--
COMPOUND: O=C(CN1CCN(c2cc(=O)n(-c3ccccc3)c3ccccc23)CC1)Nc1nc(-c2ccc(Cl)cc2)cs1
LABEL_VALUE: inactive
--
COMPOUND: COc1c(N2CC3CCCNC3C2)c(F)cc2c(=O)c(C(=O)N/N=C/c3ccc(Br)cc3)cn(C3CC3)c12 (stereo unspecified)
LABEL_VALUE: inactive
--
COMPOUND: C=CCn1c(SCC(=O)Nc2ccc(C(=O)/C=C/c3ccc(C)cc3)cc2)nnc1-c1c[nH]c2ccccc12
LABEL_VALUE: inactive
--
COMPOUND: c1cc(-c2nc3ccc4[nH]ncc4c3c3c2CCCC3)[nH]n1
LABEL_VALUE: inactive
--
COMPOUND: NC(N)=Nc1ccc(Oc2ccc(Nc3ccc(Cl)c(C(F)(F)F)c3)cc2)cc1
LABEL_VALUE: inactive
--
COMPOUND: COc1c(N2CC3CCCNC3C2)c(F)cc2c(=O)c(C(=O)N/N=C/c3ccc(N(C)C)cc3)cn(C3CC3)c12 (stereo unspecified)
LABEL_VALUE: inactive

Exercise: Check the results log: what was the call for CC(=O)C1=C(C)NC(NN)=NC1c1cccc(Cl)c1 (stereo unspecified) ?
Key: inactive

Exercise: Another: Cc1ccc(-c2cc3nc(C(Cl)Cl)nc(C)n3n2)cc1
Key: inactive

Exercise: Repeat for the following compound: Clc1cccc(/C=N/Nc2nc(N/N=C/c3cccc(Cl)c3Cl)nc(N3CCCCC3)n2)c1Cl
Key: inactive
